Origin of values: paper PMC6063448

Test system: Erwinia amylovora PMV6076
Experiment: MIC, growth inhibition in microtiter plates (TSB)
Format: cell-based
Settings: Ea, 25°C, 48 h, OD 600 nm, lowest concentration with no growth, given as interval of tested concentrations, three replicates, experiment repeated twice
quantity name: MIC

stdin: What value of MIC has been reported for the following molecule? CCCCCC(=O)NCCCC[C@H](NC(=O)[C@H](Cc1ccc(O)cc1)NC(=O)[C@H](CCCCN)NC(=O)[C@H](CC(C)C)NC(=O)[C@@H](NC(=O)[C@H](CCCCN)NC(=O)[C@H](CCCCN)NC(=O)[C@H](Cc1ccccc1)NC(=O)[C@H](CC(C)C)NC(=O)[C@H](CCCCN)NC(=O)[C@H](CCCCN)NC(C)=O)[C@@H](C)CC)C(N)=O
stdout: 3.1 to 6.2 µM

stdin: Next record, please: CCCCCCCCCCCC(=O)NCCCC[C@H](NC(=O)[C@H](CCCCN)NC(C)=O)C(=O)N[C@@H](CC(C)C)C(=O)N[C@@H](Cc1ccccc1)C(=O)N[C@@H](CCCCN)C(=O)N[C@@H](CCCCN)C(=O)N[C@H](C(=O)N[C@@H](CC(C)C)C(=O)N[C@@H](CCCCN)C(=O)N[C@@H](Cc1ccc(O)cc1)C(=O)N[C@@H](CC(C)C)C(N)=O)[C@@H](C)CC
stdout: 12.5 to 25 µM

stdin: Next record, please: CCCCCC(=O)NCCCC[C@H](NC(=O)[C@@H](NC(=O)[C@H](CCCCN)NC(=O)[C@H](CCCCN)NC(=O)[C@H](Cc1ccccc1)NC(=O)[C@H](CC(C)C)NC(=O)[C@H](CCCCN)NC(=O)[C@H](CCCCN)NC(C)=O)[C@@H](C)CC)C(=O)N[C@@H](CCCCN)C(=O)N[C@@H](Cc1ccc(O)cc1)C(=O)N[C@@H](CC(C)C)C(N)=O
stdout: 3.1 to 6.2 µM

stdin: Next record, please: CCCCCC(=O)NCCCC[C@H](NC(=O)[C@H](CCCCN)NC(=O)[C@H](CC(C)C)NC(=O)[C@@H](NC(=O)[C@H](CCCCN)NC(=O)[C@H](CCCCN)NC(=O)[C@H](Cc1ccccc1)NC(=O)[C@H](CC(C)C)NC(=O)[C@H](CCCCN)NC(=O)[C@H](CCCCN)NC(C)=O)[C@@H](C)CC)C(=O)N[C@@H](CC(C)C)C(N)=O
stdout: 3.1 to 6.2 µM

stdin: Next record, please: CCCCCCCCCCCC(=O)NCCCC[C@H](NC(=O)[C@H](CC(C)C)NC(=O)[C@H](CCCCN)NC(=O)[C@H](CCCCN)NC(C)=O)C(=O)N[C@@H](CCCCN)C(=O)N[C@@H](CCCCN)C(=O)N[C@H](C(=O)N[C@@H](CC(C)C)C(=O)N[C@@H](CCCCN)C(=O)N[C@@H](Cc1ccc(O)cc1)C(=O)N[C@@H](CC(C)C)C(N)=O)[C@@H](C)CC
stdout: 12.5 to 25 µM

* * *

Test system: Penicillium expansum EPS26
Assay: MIC, antifungal growth inhibition in microtiter plates (PDB)
Assay type: cell-based
Settings: Pe, 22°C, seven days, OD 600 nm, lowest concentration with no growth, given as interval of tested concentrations, three replicates, experiment repeated twice
quantity name: MIC

stdin: What value of MIC has been reported for the following compound? CCCCCC(=O)N[C@@H](CCCCN)C(=O)N[C@@H](CCCCN)C(=O)N[C@@H](CC(C)C)C(=O)N[C@@H](Cc1ccccc1)C(=O)N[C@@H](CCCCN)C(=O)N[C@@H](CCCCN)C(=O)N[C@H](C(=O)N[C@@H](CC(C)C)C(=O)N[C@@H](CCCCN)C(=O)N[C@@H](Cc1ccc(O)cc1)C(=O)N[C@@H](CC(C)C)C(N)=O)[C@@H](C)CC [BP367, C5H11CO-KKLFKKILKYL-NH2]
stdout: 12.5 to 25 µM

stdin: Next record, please: CCCCCCCCCCCC(=O)NCCCC[C@H](NC(=O)[C@H](Cc1ccc(O)cc1)NC(=O)[C@H](CCCCN)NC(=O)[C@H](CC(C)C)NC(=O)[C@@H](NC(=O)[C@H](CCCCN)NC(=O)[C@H](CCCCN)NC(=O)[C@H](Cc1ccccc1)NC(=O)[C@H](CC(C)C)NC(=O)[C@H](CCCCN)NC(=O)[C@H](CCCCN)NC(C)=O)[C@@H](C)CC)C(N)=O
stdout: 12.5 to 25 µM

stdin: Next record, please: CCCCCC(=O)NCCCC[C@H](NC(=O)[C@H](CCCCN)NC(=O)[C@H](Cc1ccccc1)NC(=O)[C@H](CC(C)C)NC(=O)[C@H](CCCCN)NC(=O)[C@H](CCCCN)NC(C)=O)C(=O)N[C@H](C(=O)N[C@@H](CC(C)C)C(=O)N[C@@H](CCCCN)C(=O)N[C@@H](Cc1ccc(O)cc1)C(=O)N[C@@H](CC(C)C)C(N)=O)[C@@H](C)CC
stdout: 3.1 to 6.2 µM

* * *

Tested on: Erwinia amylovora PMV6076
Test: MIC, growth inhibition in microtiter plates (TSB)
Format: cell-based
Settings: Ea, 25°C, 48 h, OD 600 nm, lowest concentration with no growth, given as interval of tested concentrations, three replicates, experiment repeated twice
Experimental: […] Three replicates for each combination of strain, compound and concentration were used. Microbial growth was determined by optical density measurement at 600 nm (Bioscreen C, Labsystem, Helsinki, Finland). For antibacterial activity microplates were incubated at 25°C with 20 s shaking before hourly absorbance measurement for 48 h. For antifungal activity microplates were incubated at 22°C with 1 min shaking before absorbance measurement that were done every two hours during seven days. […]
quantity name: MIC

stdin: So what MIC did CCCCCCCCCCCC(=O)NCCCC[C@H](NC(=O)[C@H](CCCCN)NC(=O)[C@H](CCCCN)NC(C)=O)C(=O)N[C@@H](Cc1ccccc1)C(=O)N[C@@H](CCCCN)C(=O)N[C@@H](CCCCN)C(=O)N[C@H](C(=O)N[C@@H](CC(C)C)C(=O)N[C@@H](CCCCN)C(=O)N[C@@H](Cc1ccc(O)cc1)C(=O)N[C@@H](CC(C)C)C(N)=O)[C@@H](C)CC get with Erwinia amylovora PMV6076?
stdout: 12.5 to 25 µM

stdin: Next record, please: CCCCCC(=O)NCCCC[C@H](NC(=O)[C@H](CC(C)C)NC(=O)[C@H](CCCCN)NC(=O)[C@H](CCCCN)NC(C)=O)C(=O)N[C@@H](CCCCN)C(=O)N[C@@H](CCCCN)C(=O)N[C@H](C(=O)N[C@@H](CC(C)C)C(=O)N[C@@H](CCCCN)C(=O)N[C@@H](Cc1ccc(O)cc1)C(=O)N[C@@H](CC(C)C)C(N)=O)[C@@H](C)CC
stdout: 3.1 to 6.2 µM

stdin: Next record, please: CCCC(=O)NCCCC[C@H](NC(=O)[C@@H](NC(=O)[C@H](CCCCN)NC(=O)[C@H](CCCCN)NC(=O)[C@H](Cc1ccccc1)NC(=O)[C@H](CC(C)C)NC(=O)[C@H](CCCCN)NC(=O)[C@H](CCCCN)NC(C)=O)[C@@H](C)CC)C(=O)N[C@@H](CCCCN)C(=O)N[C@@H](Cc1ccc(O)cc1)C(=O)N[C@@H](CC(C)C)C(N)=O
stdout: 3.1 to 6.2 µM

* * *

Tested on: defense-related genes in tomato plants
Test: Induction of defense gene expression of tomato plants (RT-qPCR)
Assay type: in vivo, tomato cv. Rio Grande
Settings: tomato leaves sprayed, 24 h; peptides and flg15 125 μM, JA 2.5 mM, ASM 300 mg/L; ΔΔCt relative to actin; above 2 = overexpression
Please provide measured Harp gene expression, fold induction for the entries that follow.
Write the number on its own, no unit after it.

stdin: What value of Harp gene expression, fold induction has been reported for the following compound? CCCCCC(=O)NCCCC[C@H](NC(=O)[C@H](CCCCN)NC(=O)[C@H](CCCCN)NC(=O)[C@H](Cc1ccccc1)NC(=O)[C@H](CC(C)C)NC(=O)[C@H](CCCCN)NC(=O)[C@H](CCCCN)NC(C)=O)C(=O)N[C@@H](CC(C)C)C(=O)N[C@@H](CCCCN)C(=O)N[C@@H](Cc1ccc(O)cc1)C(=O)N[C@@H](CC(C)C)C(N)=O [BP374, Ac-KKLFKKK(COC5H11)LKYL-NH2]
stdout: 0.9

stdin: Next record, please: CSC(=O)c1cccc2nnsc12 [ASM, acybenzolar-S-methyl, reference compound]
stdout: 6.3

stdin: Next record, please: CCCCCC(=O)NCCCC[C@H](NC(=O)[C@H](CC(C)C)NC(=O)[C@H](CCCCN)NC(=O)[C@H](CCCCN)NC(C)=O)C(=O)N[C@@H](CCCCN)C(=O)N[C@@H](CCCCN)C(=O)N[C@H](C(=O)N[C@@H](CC(C)C)C(=O)N[C@@H](CCCCN)C(=O)N[C@@H](Cc1ccc(O)cc1)C(=O)N[C@@H](CC(C)C)C(N)=O)[C@@H](C)CC [BP371, Ac-KKLK(COC5H11)KKILKYL-NH2]
stdout: 0.9

stdin: Next record, please: CCCC(=O)NCCCC[C@H](NC(=O)[C@H](Cc1ccc(O)cc1)NC(=O)[C@H](CCCCN)NC(=O)[C@H](CC(C)C)NC(=O)[C@@H](NC(=O)[C@H](CCCCN)NC(=O)[C@H](CCCCN)NC(=O)[C@H](Cc1ccccc1)NC(=O)[C@H](CC(C)C)NC(=O)[C@H](CCCCN)NC(=O)[C@H](CCCCN)NC(C)=O)[C@@H](C)CC)C(N)=O [BP390, Ac-KKLFKKILKYK(COC3H7)-NH2]
stdout: 0.5
